- measurement_description: Ligand binding assay by ANS displacement, THC
- run_conditions: FIG. 8; 2 μM protein, 20 μM ANS, 33 μM ligand, 20° C.
assay_readout: binding to THC by ANS displacement (relative change in fluorescence)

molecule	experimental_value
1 (protein, Cluster63 Unique) MTSTEKKDMKAVKGLDLERYMGRWYEIASFPSRFQPKDGVDTRATYTLNPDGTVHVLNETWNGGKRGFIQGSAYKADPKSDEAKLKVKFFVPPFLPVIPVTGDYWVLYIDPEYQHAVIGQPSRSYLWILSRTAHMEEETYKQLVEKAVEEGYDVSKLHKTPQSDTPPESNTAPDDTKGVWWLKSIFGK	bind to both THC and CBD
30 (protein, Micractinium conductrix) MAYSGRWYEVASLKRGFAGEGQQDCHCTQGIYTPKEGGPEGAIKLEVDTFCVHGGPGGRLSGIQGSVSCADPLLLSYLPEFQTEMEMVEGFVAKCALRFDSLAFLPPEPYVVLRTDYTSYALVRGAKDRSFVQIYSRTPNPGAKFIAEQKAVLGQLGYPANDIVDTPQDCPEMAPQ	bind to both THC and CBD
